Tested on: L1210 leukemia ip in BDF1 mice, survival T/C
Experiment: NCI In Vivo Anticancer Drug Screen. Data for tumor model L1210 Leukemia (intraperitoneal) in B6D2F1 (BDF1) mice
Settings: endpoint: mean survival time; dose: 200.0 mg/kg/injection; schedule: Q01DX001 (ip); vehicle: carboxymethylcellulose (CMC); higher = longer survival
Toxic doses and inconclusive results are not listed.

COMPOUND	T/C
C=CC1CN2CCC1CC2C(O)c1ccnc2ccc(OC)cc12 (configuration not stated) (tested in a mixture with another compound)	102 % of control
COc1ccc(CN(C)C)c(C(O)c2ccccc2)c1 (configuration not stated)	103 % of control
Cn1c2ccccc2c(=O)c2c(O)cc3c(c21)C=CC(C)(C)O3	88 % of control
CC(=O)Nc1ccc2c(c1)C(S)c1ccccc1-2 (configuration not stated)	114 % of control
CCOc1ccc(Cl)cc1C1N(Cc2ccccc2OC)CCCN1Cc1ccccc1OC	93 % of control
COc1ccc(Br)cc1/C=C\C=O	105 % of control
COc1ccc(NP2(=O)OCC(C)(N)CO2)cc1 (configuration not stated)	96 % of control
O=c1[nH]cnc2[nH]ncc12	102 % of control
N#CC(c1ccccc1)c1cccnc1 (configuration not stated)	92 % of control
COC(=O)C1=C(\N2CCOCC2)CCCC/C=C\1C(=O)OC	105 % of control
CC(=O)OC(c1ccnc2ccccc12)C1CC2CCN1CC2 (configuration not stated)	95 % of control
CC1c2ncnc(N)c2CN1C(=O)c1ccccc1 (configuration not stated)	98 % of control

###

Tested on: L1210 leukemia ip in BDF1 mice, survival T/C
Assay: NCI In Vivo Anticancer Drug Screen. Data for tumor model L1210 Leukemia (intraperitoneal) in B6D2F1 (BDF1) mice
Conditions: endpoint: mean survival time; dose: 400.0 mg/kg/injection; schedule: Q01DX001 (ip); vehicle: carboxymethylcellulose (CMC); higher = longer survival
Procedure: The antitumor activity of compounds was measured in mice bearing transplantable tumors. Survival or tumor size were measured and the results are expressed as the measurement made in the treated group (T) divided by the measurement made in the vehicle treated control group (C). The tumor model used in this assay is L1210 Leukemia (intraperitoneal) in B6D2F1 (BDF1) mice
Toxic doses and inconclusive results are not listed.
As shown below, each of these molecules has a reported T/C value.
ASSAY_ENDPOINT: T/C

MOLECULE	MEAS_VALUE
O=C1c2cc(Br)ccc2-c2c(F)cc(Br)cc21	94 % of control
Cc1ccc(S(=O)(=O)OCCCCl)cc1	101 % of control
CC(C)CC(=O)N(C)c1ccccc1	97 % of control
N#CCC(=O)N/N=C\c1ccc2c(c1)OCO2	97 % of control
CCCCCCCNC1=C(C)C(=O)C(NCCCCCCC)=C(C)C1=O	89 % of control
c1cc[n+]2c(c1)-c1cccc[n+]1CCC2	92 % of control
CC(NC(=O)c1cnc2ccccc2n1)C(=O)NCC(=O)O (configuration not stated)	94 % of control

###

Tested on: L1210 leukemia ip in BDF1 mice, survival T/C
Experiment: NCI In Vivo Anticancer Drug Screen. Data for tumor model L1210 Leukemia (intraperitoneal) in B6D2F1 (BDF1) mice
Settings: endpoint: mean survival time; dose: 400.0 mg/kg/injection; schedule: Q01DX001 (ip); vehicle: saline; higher = longer survival
Toxic doses and inconclusive results are not listed.
T/C by entry:
ASSAY_ENDPOINT: T/C

MOLECULE	SYSTEM_NAME	MEAS_VALUE
Brc1ccc(SSc2ccc(Br)cc2)cc1	L1210 leukemia ip in BDF1 mice, survival T/C	95 % of control
O=C1O/C(=C\c2ccccc2)c2ccccc21	L1210 leukemia ip in BDF1 mice, survival T/C	99 % of control
O=C(O)C(SCc1ccccc1)c1ccccc1 (centres undefined)	L1210 leukemia ip in BDF1 mice, survival T/C	92 % of control
NNc1n[nH]c(=O)[nH]c1=O	L1210 leukemia ip in BDF1 mice, survival T/C	96 % of control
O=C(CC(NCc1ccccc1)C(=O)O)c1ccccc1 (centres undefined)	L1210 leukemia ip in BDF1 mice, survival T/C	97 % of control
CC(O)C(O)C(O)CO (centres undefined)	L1210 leukemia ip in BDF1 mice, survival T/C	94 % of control
OCCOCC(F)(F)F	L1210 leukemia ip in BDF1 mice, survival T/C	105 % of control
Cc1nn[nH]n1	L1210 leukemia ip in BDF1 mice, survival T/C	105 % of control
O=C1NC(c2ccccc2)(c2ccccc2)C(=O)N1CCO	L1210 leukemia ip in BDF1 mice, survival T/C	102 % of control
[BH3-][NH2+]c1cccc([NH2+][BH3-])c1	L1210 leukemia ip in BDF1 mice, survival T/C	94 % of control
CCC1=C(C)CN(C)c2ccccc21	L1210 leukemia ip in BDF1 mice, survival T/C	94 % of control
Cc1ccc(C(=O)N2CCCCC2)c[n+]1C	L1210 leukemia ip in BDF1 mice, survival T/C	105 % of control
COc1c([N+](=O)[O-])cc(C)nc1Cl	L1210 leukemia ip in BDF1 mice, survival T/C	101 % of control
CCOC(=O)CCN(C(=O)OCC)C(COCc1ccccc1)C(=O)OCC (centres undefined)	L1210 leukemia ip in BDF1 mice, survival T/C	98 % of control
